testMethodNotes: soluble on expression in E. coli; label from the status in PepcDB or PDB records

{"columns": ["residues", "soluble on expression in E. coli"],
 "data": [
  ["VDWTDAERSAIVGLWGKISVDEIGPQALARLLIVSPWTQRHFSTFGNLSTPAAIMGNPAVAKHGKTVMHGLDRAVQNLDDIKNTYATLSVMHSEKLHVDPDNFRLLADCITVCVAAKLGPAVFSADTQEAFQKFLAVVVSALGRQYH", "soluble"],
  ["MSVELRDATVDDLSGIMEIYNDAVVNTTAIWNEVVVDLENRKDWFAARTSRGFPVIVAILDGKVAGYASYGDWRAFDGYRHTREHSVYVHKDARGHGIGKRLMQALIDHAGGNDVHVLIAAIEAENTASIRLHESLGFRVVGRFSEVGTKFGRWLDLTCMELKLG", "not soluble"],
  ["MGSDKIHHHHHHLITIENSKFKAGIAERGAELQSLVNKADNYEYVWTGDKTFWNRHAPILFPSIGKSNQDQYRLGAKTYPMSQHGFARDYDFDVSDKSDSAVTFTQHQNAETLKKFPFEYTLAVTYMLTDGGLSVHYTVTNDDSKSMPFALGFHPAFNVGLKADGSFDDYDLTVEPLNSPLQRFGIGPVPFRNGDVEDIPGAEGNRLPLTHDLLDGGLVILANSEIAKATLASPHHDHSITLDISDFPYLTIWSPEHKKAPFIAVEPFDGLPDQAGEPTDWYTKLGNTTLSAGANKQLALKVELH", "not soluble"],
  ["MMAVENAVDYPISVRLPSYVVEKIDELVKKRKFRSRSDFIKFAVTFALGQIMMEEARERAKNEPEELEKERKEAWMRLRAGDFSKEDEETLELLKKVDARYKRLGGRS", "soluble"]
]}

---

testMethodNotes: soluble on expression in E. coli; label from the status in PepcDB or PDB records
assayReadout: soluble on expression in E. coli

Known results for sequences:
{"columns": ["residues", "observedValue"],
 "data": [
  ["MTTTGHVHFYIGTYTNPPSTSTSTGIARLSLNTETGELTRLDDVVVQRNPSYLTTTEHGLYTFSEMDRNEGTELAFFRGSESVSLPINGDYPCHLDIKEPLLAVANYGSGNVSVFQLDRDGKPLGLLADLYVDGCGPNLERQTSPHAHQVTFLKHSHQLVVVDLGSDSVLIYDYDAQPPDFSLSQVIHLPAGSGPRHVVFNQQESTAYVVCELSETLIVLVKHQDKWLISNQTELLEGEENQQAAAAIRLSQDETFLYVSCRAQNKISMFDVSGDTPKRRAAIHCEGVFPRDFVLSHDQKWLLVANQHSNNVVSFRRNPQTGEITPTGYDCEIGSPVCIVEQPLLEHHHHHH", "not soluble"],
  ["MSRDGSVAPKERINIRYVPATGDTQEDVELPLSMMVVGDFTARADETPIEERTPINIDKDNFNDVLEGMSPNVKVNVENRLSDEEGAQIGVDLTFQNMKDFSPEAIAKSVPELNSLLELREALVALKGPLGNVPAFRKKIASVLQDEEARKKLLDELSIGNDQDAKEE", "soluble"],
  ["MYELYTLLAEYYDTIYRRRIERVKAEIDFVEEIFKEDAKREVRRVLDLACGTGIPTLELAERGYEVVGLDLHEEMLRVARRKAKERNLKIEFLQGDVLEIAFKNEFDAVTMFFSTIMYFDEEDLRKLFSKVAEALKPGGVFITDFPCWFYGGRDGPVVWNEQKGEEKLVIMDWREVEPAVQKLRFKRLVQILRPNGEVKAFLVDDELNIYTPREVRLLAEKYFEKVKIYGNLKRELSPNDMRYWIVGIAKSF", "soluble"],
  ["MSLATEQIQHIAIVGCVHGKYREMYRQLSEYEKSTGKEISFVICTGDMQTLRYEADLVYLKVPPKYKQMGDFHLYYEGKEKAPYLTLFIGGNHESSNVLLHLYNGGFVCFNMYYLGVCSCININGLRIVGVSGIYKSFDEKKPYTYPPSPNDVVSLFHTRNYVIQMLSNLSQSSQIDISLSHDWPQGIVMKGNYKQLYRFQPGFKKDGASLGSPINKVILNTLKPKYWISGHMHCEYHAEEGPTHFIALGKIGYKNAISYLDLPLKQKTDLEYDKDWVCNLIMTWPAFSNKAQFPDLSYSISELLSKRTKELDKKIIELWEKYIGLKIIYDSDTFDIQFTSRRFYIEKIYNELNINEGHHHHHH", "soluble"]
]}

Exam item: Please look up its soluble on expression in E. coli: MAHHHHHHMTSVEAENQPVEDPETFVVMEENGAPRDPQVAVSALDEAAEEGAVSGGEREPAAAGDDLSNPHVFKVAAREVDEGYMSVIRGLSAFGRADEEVCRNAVDICKDIIAMEQSLFSEVPSYVTNYASMQRAKTVVLNKAVRPHWTIPTPEGPPRTWEEQRAYVDPGVPLMLPYSAERFKKEHPERALVEGTYHNLFYGDGTQVVFTASADNKRKQIEEEKRKHPHPSYHGPYVFEPQQKKPMRVASDFVPSCAEPDRLRVDLRKKPVTKAKAEKSQKKKVTTK
Marked response: not soluble

Exam item: Please look up its soluble on expression in E. coli: VPTDCTENWVVVYLSGPLFFMSSERLKQTLLQLETKSGVVFSMRGVPSIDSTALDILEEFCLAAEGRGQQVQFAALQPEVEKMIRTIQGNQEKEYHFSVAEFLQTVHVA
Marked response: not soluble

Exam item: Please look up its soluble on expression in E. coli: MGSDKIHHHHHHMTNYIEEYCAQIRRMGSAGLIAKPILVDQDGTYTMTYVPHEHLNLGARLVLVSTTPGHAHVRLAAAVTEELLQARTPGRVIQRENKRRVELGGQLIRPNLIRMLDHFRAPELVGLPHAAALWNEGFEQFQPLALLPCATTRRGLAFNGTLEDLLAAPMLRAAFEAHFLGALRQMRPDAFYIALGRTAWSGLRHAASRRLLAKHQLLGMMPVPARAGNMVRYFLREISANDLSPNDPVRHRVDWLDAAHTELMANVQKVRAANMPPEGPNYLIA
Marked response: not soluble

Exam item: Please look up its soluble on expression in E. coli: MKGEGVIVGILNKNFSLSKGDLDVVSLGEILVDMISTEEVNSLSQSREYTRHFGGSPANIAVNLSRLGKKVALISRLGADAFGNYLLDVLKGEQIITDGIQQDKERRTTIVYVSKSTRTPDWLPYREADMYLQEDDIIFELIKRSKVFHLSTFILSRKPARDTAIKAFNYAREQGKIVCFDPCYRKVLWPEGDDGAGVVEEIISRADFVKPSLDDARHLFGPDSPENYVKRYLELGVKAVILTLGEEGVIASDGEEIIRIPAFSEDAVDVTGAGDAFWSGFICGLLDGYTVKRSIKLGNGVAAFKIRGVGALSPVPSKEDIIKEYNI
Marked response: soluble

Exam item: Please look up its soluble on expression in E. coli: MGSDKIHHHHHHMEKKFNLENYLSYGVQNIVKGIIKSTLSNPKESLFMAKYSIASKNAIKLRAEADKIGEHVPPFLIASITSKCNLHCKGCYARHVNSCTDEKTVNQLTDEDWRRVFYEAKDIGVGFILLLGGEPLMRPNVIKIAGEIEDILFPIFTNGTMIDEKYIKLFQKYRNLIPIFSIEGNESNTDKRRGTGIYSEIIKKMNEAYENKIIYGASITVTKENIEEVTSEKFLDKLYSRGCKSVIYVEYVPVSEKEKKIALEGKEREFLKDKLVELRYKYEDILFISFPGDEKSSGGCLAAGRGFFHINFNGGVEPCPFSPYSDTNLKDLSLKEAMNSPLFRKLRKDNVLMEEHSGGCVLFEKEDIVQSLLQK
Marked response: not soluble

Exam item: Please look up its soluble on expression in E. coli: MGSDKIHHHHHHMPASSHQPLDLAKFTLSSPTEIAQHLSNIAKHGHMVTVFANKGKNFILTRLLEVDYQAGVFTFDWGAEEETNTQVLNSERNVFVCSPEGVKTQFVAGQISQVMVDDRPAFQCRLPEQVIKLQRREFFRIQTPLGSPVFCRIGDFNQRSIDLALFDISLGGMSLWLPGIDTPGFDIGQQYLQCSIDLKPFGTLALGIEVRHRLTARMRNGNEAMRIGCSYLNLSAPMETIIQRYVGFLERERRAMVG
Marked response: not soluble
